Each entry below lists one item and its recorded protein stability index value.
B1: ZNF263 (parent)
chain: HLTRHQRTHTGEKPYKCTLCGENF

# Variants of: B1
# assay_info: protein stability index of a GFP-peptide fusion (GPS, HEK-293T) (PSI 1-6); higher = more stable;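 also: lentivirally expressed fusions sorted by FACS into six bins by GFP to DsRed ratio, PSI derived from sequencing read proportions per bin multiplied by bin number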
# condition_details: c terminus: a fixed tail appended
Give a plain numeric answer without units written out.

Guide cases for protein stability index, answers given:
| variant_string | protein stability index |
| --- | --- |
| H9Y | 2.19 |
| T10N | 2.44 |

stdin: Which protein stability index value belongs to "C20S" ?
stdout: 3.23

stdin: Please give the result for "Y15F" too.
stdout: 3.31

stdin: Same thing, different variant: "C17M"
stdout: 2.81

stdin: Then this variant: "E22T"
stdout: 2.58

stdin: Param item: "L2C"
stdout: 4.73

stdin: And for "P14M" ?
stdout: 2.63

stdin: Please answer likewise for "H5E"
stdout: 2.96

stdin: Moving on to the next variant: "H5W"
stdout: 2.31

stdin: # repeat for "K13G"
stdout: 2.92

stdin: Also, "Q6M" please.
stdout: 2.6

stdin: Please do the same for "E22A" as well.
stdout: 2.54

stdin: Next variant up: "C20M"
stdout: 2.93

stdin: And for "C20R" ?
stdout: 3.03

stdin: Try "C17D" next.
stdout: 3.73

stdin: And the next one, "K16E" ?
stdout: 3.82

stdin: Would you mind doing "H5I" as well?
stdout: 2.11

stdin: // next record "E12N"
stdout: 2.7

stdin: Cool, now "T3N"
stdout: 3.6

stdin: Can you check "T18Q" next?
stdout: 2.68

The measurements presented in this section are drawn from the supplement of paper PMC10567573.
